protocol-notes: PK simulation and model analysis using Phoenix WinNonlin 8.1 (non-compartmental and compartmental)
Format: in vivo
setup-conditions: male, CD1, mouse, plasma, iv, 5 mg/kg, 1-CA (one compartmental analysis), 0-6 h; read-out: AUC0‐∞
observation-type: AUC (ng·h/mL)
Numbers only; they are read as ng·h/mL.

Sure, the documented AUC for COc1cc(C(C)=O)ccc1O [Apocynin, 4‐hydroxy‐3‐methoxyacetophenone] is 681

---

protocol-notes: Apocynin in organs after 16 weeks in drinking water, HFD mouse model (HPLC-MS/MS)
Assay type: in vivo
setup-conditions: male, heart, oral, C57BL/6J mice, HFD 16 weeks, apocynin 5 mmol/L in drinking water, read-out: heart apocynin concentration at end of treatment
observation-type: concentration at 16 weeks (ng/g)
Numbers only; they are read as ng/g.

Sure, the documented concentration at 16 weeks for COc1cc(C(C)=O)ccc1O [Apocynin, 4‐hydroxy‐3‐methoxyacetophenone] is 1800

---

protocol-notes: Apocynin in organs after 16 weeks in drinking water, HFD mouse model (HPLC-MS/MS)
Format: in vivo
setup-conditions: male, brain, oral, C57BL/6J mice, HFD 16 weeks, apocynin 5 mmol/L in drinking water, read-out: brain apocynin concentration at end of treatment
Method: […] The detection of apocynin in tissue sample was performed as described previously with some modifications. ^17 In brief, apocynin was detected using an Accela HPLC coupled to a linear ion‐trap tandem mass spectrometry (LTQ‐Orbitrap XL; Thermo‐Fisher Scientific) (HPLC‐MS/MS) in the negative ion mode. […] The limitation of quantification was set up at signal to noise ratio ≥ 10, which is 10 ng/mL in our system. […]
observation-type: concentration at 16 weeks
Answers without a unit are incomplete; give the number and then its unit.

Sure, the documented concentration at 16 weeks for COc1cc(C(C)=O)ccc1O [Apocynin, 4‐hydroxy‐3‐methoxyacetophenone] is 5370 ng/g

---

protocol-notes: Time-dependent distribution of apocynin in plasma, urine and tissues after iv bolus injection (HPLC-MS/MS)
Type: in vivo, mouse
setup-conditions: male, mouse, plasma; CD1 mice, iv bolus 5 mg/kg, 15 minutes
observation-type: concentration at 15 min

Sure, the documented concentration at 15 min for COc1cc(C(C)=O)ccc1O [Apocynin, 4‐hydroxy‐3‐methoxyacetophenone] is ~50 ng/mL

---

protocol-notes: PK simulation and model analysis using Phoenix WinNonlin 8.1 (non-compartmental and compartmental)
Type: in vivo
setup-conditions: male, CD1, mouse, plasma, iv, 5 mg/kg, NCA, iv 5 mg/kg, n = 3; read-out: V d (central volume of distribution)
observation-type: Vd (L/kg)
Numbers only; they are read as L/kg.

Sure, the documented Vd for COc1cc(C(C)=O)ccc1O [Apocynin, 4‐hydroxy‐3‐methoxyacetophenone] is 0.569

---

protocol-notes: PK simulation and model analysis using Phoenix WinNonlin 8.1 (non-compartmental and compartmental)
Type: in vivo
setup-conditions: CD1, mouse, plasma; NCA, iv 5 mg/kg, n = 3; read-out: Kel (elimination rate constant) (converted)
observation-type: k el
Answers without a unit are incomplete; give the number and then its unit.

Sure, the documented k el for COc1cc(C(C)=O)ccc1O [Apocynin, 4‐hydroxy‐3‐methoxyacetophenone] is 0.00379 s⁻¹

---

protocol-notes: PK simulation and model analysis using Phoenix WinNonlin 8.1 (non-compartmental and compartmental)
Type: in vivo
setup-conditions: male, CD1, mouse, plasma, iv, 5 mg/kg, NCA, iv 5 mg/kg, n = 3; read-out: AUC0‐30min
observation-type: AUC (ng·h/mL)
Numbers only; they are read as ng·h/mL.

Sure, the documented AUC for COc1cc(C(C)=O)ccc1O [Apocynin, 4‐hydroxy‐3‐methoxyacetophenone] is 643
